Molecular target: human GLP-1 receptor (GLP-1R) (human, UniProt P43220 24-463)
Sequence (P43220 24-463): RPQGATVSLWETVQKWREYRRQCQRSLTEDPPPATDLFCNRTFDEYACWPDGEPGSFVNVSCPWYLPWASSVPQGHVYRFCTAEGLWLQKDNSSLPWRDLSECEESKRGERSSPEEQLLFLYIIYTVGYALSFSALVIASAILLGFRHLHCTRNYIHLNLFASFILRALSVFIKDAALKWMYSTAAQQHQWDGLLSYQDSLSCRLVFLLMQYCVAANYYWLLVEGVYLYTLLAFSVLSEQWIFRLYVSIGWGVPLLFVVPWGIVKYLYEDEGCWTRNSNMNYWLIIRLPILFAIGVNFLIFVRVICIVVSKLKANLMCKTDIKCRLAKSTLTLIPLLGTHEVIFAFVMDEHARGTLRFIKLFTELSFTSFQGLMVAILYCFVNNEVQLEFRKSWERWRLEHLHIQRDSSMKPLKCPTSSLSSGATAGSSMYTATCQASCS
Assay: cell-based or functional assay
Where no end group is shown, it is not given here. [ ]: non-standard residue; d: D form. Formula III = not defined here; Formula II = not defined here; Aib = CC(C)(N)C(=O)O
Below is a list of entries, each paired with its recorded GLP-1R pEC 50 value.
Reply with just the number (in pEC50).

[Q] # query: GLP-1R pEC 50 of entry YSHGTFTSDK(Formula II)SKYLD[Aib]KRAQEFVIWLEDEPSSGAPPPS-OH (reading uncertain) [Compound B27]
[A] 6.6

[Q] # query: GLP-1R pEC 50 of entry YSQGTFTSDYSKYLDK(Formula II)ARAQEFVKWLEDEPKSKSPPPS-NH2 (reading uncertain) [Compound B35]
[A] 6.6

[Q] # query: GLP-1R pEC 50 of entry YSHGTFTSDK(Formula III)SKYLD[Aib]KRAQEFVIWLEDEPSSGAPPPS-OH (reading uncertain) [Compound B32]
[A] 7.8

[Q] # query: GLP-1R pEC 50 of entry YSHGTFTSDK(Formula II)SKYLD[Aib]KSAQEFV[Aib]WLEDEPSSGAPPPS-OH (reading uncertain) [Compound B12]
[A] 7.2
